- Assay Target: Mouse Serum Albumin (Mus musculus, UniProt P07724)
- Construct: The above albumins were prepared using method IV of Cohn et al. (J. Am. Chem. Soc. 69: 1753-1761, 1947) and purified with 1× crystallization; purchased Sigma A-3559
- Sequence (P07724 25-608): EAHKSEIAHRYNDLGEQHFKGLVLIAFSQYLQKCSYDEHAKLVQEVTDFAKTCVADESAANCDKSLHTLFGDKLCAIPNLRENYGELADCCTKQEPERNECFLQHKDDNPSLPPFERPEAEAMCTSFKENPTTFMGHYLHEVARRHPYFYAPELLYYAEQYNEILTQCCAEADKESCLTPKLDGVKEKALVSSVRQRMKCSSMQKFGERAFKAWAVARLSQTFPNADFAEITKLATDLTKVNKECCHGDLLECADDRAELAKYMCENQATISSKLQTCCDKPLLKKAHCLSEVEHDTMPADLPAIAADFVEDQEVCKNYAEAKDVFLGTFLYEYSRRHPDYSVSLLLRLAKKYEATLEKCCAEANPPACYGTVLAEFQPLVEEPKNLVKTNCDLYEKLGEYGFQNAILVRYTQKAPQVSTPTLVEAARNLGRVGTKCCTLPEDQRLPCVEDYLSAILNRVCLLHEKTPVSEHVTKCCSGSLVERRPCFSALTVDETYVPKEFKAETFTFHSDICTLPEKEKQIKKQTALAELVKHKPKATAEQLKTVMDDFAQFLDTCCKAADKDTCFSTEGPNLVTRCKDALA
- Method Summary: ThermoFluor thermal shift assay with mouse serum albumin
- Assay type: binding
- Settings: Example 4, Table 3
pKd: −log10 of the molar value.
Property: pKd

a. CCC(Cc1c(I)cc(I)c(O)c1I)C(=O)O (stereo not drawn) [Iophenoxate, iophenoxate]
b. CC(C(=O)O)c1ccc(-c2ccccc2)c(F)c1 (stereo not drawn)
c. CCC(Cc1c(I)cc(I)c(N)c1I)C(=O)O (stereo not drawn) [Iodopanoate, iodopanoate]
QUERY: Rank the compounds listed above in increasing order of pKd. Return value: ordered labels per request.
RESULT: b, c, a

---

- Assay Target: Rat Serum Albumin (Rattus norvegicus)
- Construct: The above albumins were prepared using method IV of Cohn et al. (J. Am. Chem. Soc. 69: 1753-1761, 1947) and purified with 1× crystallization; purchased Sigma A-6414
- Sequence (P02770 25-608): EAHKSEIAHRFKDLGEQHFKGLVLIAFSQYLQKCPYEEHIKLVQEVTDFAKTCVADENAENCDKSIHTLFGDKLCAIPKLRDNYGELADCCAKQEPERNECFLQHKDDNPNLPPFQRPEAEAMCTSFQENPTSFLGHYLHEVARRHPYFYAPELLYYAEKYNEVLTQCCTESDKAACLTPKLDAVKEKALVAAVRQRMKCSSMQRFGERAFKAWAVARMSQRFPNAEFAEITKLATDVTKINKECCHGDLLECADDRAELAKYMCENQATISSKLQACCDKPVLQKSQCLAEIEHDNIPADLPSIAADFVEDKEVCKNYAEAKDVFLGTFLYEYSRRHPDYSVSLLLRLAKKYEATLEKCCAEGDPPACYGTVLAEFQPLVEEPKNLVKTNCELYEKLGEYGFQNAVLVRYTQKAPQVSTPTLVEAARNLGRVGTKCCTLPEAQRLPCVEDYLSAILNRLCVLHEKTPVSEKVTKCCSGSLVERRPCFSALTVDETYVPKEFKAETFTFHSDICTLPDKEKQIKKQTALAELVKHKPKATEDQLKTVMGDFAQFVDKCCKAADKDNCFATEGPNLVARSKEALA
- Method Summary: ThermoFluor thermal shift assay with rat serum albumin
- Type: binding
- Settings: Example 4, Table 3
Property: Kd (µM)

a. COc1cc(NS(=O)(=O)c2ccc(N)cc2)nc(OC)n1
b. CN1C(C(=O)Nc2ccccn2)=C(O)c2sccc2S1(=O)=O
c. CCC(Cc1c(I)cc(I)c(N)c1I)C(=O)O (centres unmarked) [Iodopanoate, iodopanoate]
d. CC(C(=O)O)c1ccc2c(c1)[nH]c1ccc(Cl)cc12 (centres unmarked)
QUERY: List from greatest to least Kd. Answer by listing the labels in the requested order.
RESULT: b, a, d, c
